Recorded values, source the SangsterLogP compilation.

# logP per entry
assay overview: method code SF-HPLC, from DOI: 10.1021/jf960844v
Response field accepts a number only; no unit should be typed.

Guide cases for logP, answers given:
- smiles structure: "CCO/N=C(\\C)c1cccc(Oc2nc(OC)cc(OC)n2)c1C(=O)OC"
  measured endpoint: "logP"
  experimental result: 2.96
- smiles structure: "C=C(Cl)CON=C(C)c1cccc(Oc2nc(OC)cc(OC)n2)c1C(=O)OC"
  measured endpoint: "logP"
  experimental result: 3.63

Field request: logP | item: COC(=O)c1c(Oc2nc(OC)cc(OC)n2)cccc1/C(C)=N/OCCCl
3.23

# input compound: COC(=O)c1c(Oc2nc(OC)cc(OC)n2)cccc1C(C)=NOCc1ccccc1 ; wanted: its logP
4.01

Recorded logP of COC(=O)c1c(Oc2nc(OC)cc(OC)n2)cccc1C(C)=NOCC(F)(F)F , please.
3.39

Using the record for COC(=O)c1c(Oc2nc(OC)cc(OC)n2)cccc1C(C)=NOCCF , report its logP.
2.31

Quick check: logP of C=CCO/N=C(\C)c1cccc(Oc2nc(OC)cc(OC)n2)c1C(=O)OC ?
3.13
